B1: Thioredoxin, P08058 (parent)
chain: MSTVPVTDATFDTEVRKSDVPVVVDFWAEWCGPCRQIGPALEELSKEYAGKVKIVKVNVDENPESPAMLGVRGIPALFLFKNGQVVSNKVGAAPKAALATWIASAL

variants of: B1; conditions: Cereibacter sphaeroides; pH 7.4; 23 °C; Urea; Fluorescence; Potassium phosphate 20mM; whole UniProt chain shown
Listing of entries alongside the reported unfolding free energy.
Report the value in kcal/mol with no unit label.

Some variants with recorded unfolding free energy:
In: Read the entry `F26Y` and write its reported unfolding free energy.
Out: 7.89

In: Read the entry `F26I` and write its reported unfolding free energy.
Out: 4.3

In: Read the entry `F26V` and write its reported unfolding free energy.
Out: 3.35

Then this variant:
In: Read the entry `F26L` and write its reported unfolding free energy.
Out: 4.78
